# credit: paper PMC5540273

Tested on: EPHB6;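 further: KINOMEscan kinase panel screen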
Conditions: concentration: 1 μM, replicates: in singlicate; n = 1
QUANTITY: %Inh (%)

INSERT INTO measurements (molecule, assayed_target, readout_units, readout_value) VALUES
  ('Cc1ccc(C(=O)NCC(N)=O)cc1-n1c(C)cc(OCc2ccc(F)cc2F)c(Br)c1=O', 'EPHB6', '%', 6),
  ('Cn1ccc2ncnc(Oc3ccc(NC(=O)Nc4ccncc4)c(Cl)c3)c21', 'EPHB6', '%', 0),
  ('CN(C(=O)c1ccc(-c2cc(-c3c[nH]nc3-c3ccccn3)ccn2)cc1)C1CCOCC1', 'EPHB6', '%', 0),
  ('Cc1nnc(-c2ccc3occ(-c4ccc(C(C)O)cc4)c3c2)o1 (centres unmarked)', 'EPHB6', '%', 15),
  ('O=C(Nc1cccc(-c2nn3ncccc3c2-c2ccnc(Nc3cccc(C(F)(F)F)c3)n2)c1)c1c(F)cccc1F', 'EPHB6', '%', 30),
  ('O=C(c1ccc(-c2cc(-c3c[nH]nc3-c3ccccn3)ccn2)cc1)N1CCOCC1', 'EPHB6', '%', 0),
  ('Cc1cccc(Cn2ccn3c(=O)cc(N4CCOCC4)nc23)c1', 'EPHB6', '%', 24),
  ('COc1ccc(S(=O)(=O)NC2CCN(c3cc(C)nc(Nc4cccc(C#N)c4)n3)CC2)cc1.O=C(O)C(F)(F)F', 'EPHB6', '%', 14);
